system: stomach epithelium cells; experiment: Inhibition of acetylsalicylic acid-induced loss of stomach epithelium cells; type: in vivo; settings: Rattus norvegicus; narcotized male SIV50 rats; acetylsalicylic acid as irritant; 3 times 300 mg/kg test compound orally beforehand; read-out: % reduction of loss of epithelium cells in the stomach
MEASURED PARAMETER: inhibition in vivo at 300 mg/kg

INSERT INTO results (compound, tgt, assay_result) VALUES
  ('COc1ccc(C(=O)NCC(O)CN(C)c2ccc(F)cc2)c2c1OCCO2 (stereo not shown)', 'stomach epithelium cells', '48.6%'),
  ('CCN(CC(O)CNC(=O)c1cc(OC)c(OC)c(OC)c1)c1ccc(F)cc1 (stereo not shown)', 'stomach epithelium cells', '43%'),
  ('COc1cc(C(=O)NCC(O)CN(C)c2ccc(F)cc2)cc(OC)c1OC (stereo not shown)', 'stomach epithelium cells', '53%'),
  ('CCCCOc1c(OC)cc(C(=O)NCC(O)CN(C)c2ccc(F)cc2)cc1OC (stereo not shown)', 'stomach epithelium cells', '27.2%');
